System: field corn (Zea mays L., var. Dekalb 535, CORN)
testMethodNotes: Pre-emerge test, crop safety
Type: in vivo
conditionSet: 250 g ai/ha; crop damage rating 0-100, 14 days after application
Label N if Pre-emerge Herbicidal Activity CORN falls below 20; label Y in every other case.

COc1c(Cl)cc(F)c(-n2c(=O)cc(C(F)(F)F)n(C)c2=O)c1NC(=O)N(Cc1ccccc1)c1ccccc1 [Compound 3-23]: N
COc1c(Cl)cc(F)c(-n2c(=O)cc(C(F)(F)F)n(C)c2=O)c1NC(=O)OCc1ccc2c(c1)OCO2 [4-41]: Y
COc1c(Cl)ccc(-n2c(=O)cc(C(F)(F)F)n(C)c2=O)c1NC(=O)c1ccc2ccccc2c1 [2-202]: Y
Cn1c(C(F)(F)F)cc(=O)n(-c2ccc(Cl)cc2NC(=O)OCc2ccccc2F)c1=O [4-49]: N
COc1c(Cl)cc(F)c(-n2c(=O)cc(C(F)(F)F)n(C)c2=O)c1NC(=O)OCc1c(Cl)cccc1Cl [4-24]: N

Query string: Answer whether Pre-emerge Herbicidal Activity CORN of COc1c(Cl)cc(F)c(-n2c(=O)cc(C(F)(F)F)n(C)c2=O)c1NC(=O)OCc1ccc(F)c(F)c1 [4-30] is greater than or equal to 20.
Result string: Y

Query string: Answer whether Pre-emerge Herbicidal Activity CORN of COc1ccc(COC(=O)Nc2c(OC)c(Cl)cc(F)c2-n2c(=O)cc(C(F)(F)F)n(C)c2=O)cc1 [4-40] is greater than or equal to 20.
Result string: Y

###

Entries and their phytotoxicity rating SORHA values follow.
Test system: johnsongrass (Sorghum halepense, SORHA)
testMethodNotes: Post-emerge test, greenhouse herbicide activity screening
Type: in vivo
conditionSet: post-emerge, 250 g ai/ha, 14 days after application, rating scale 0-100
Give your answer as a number; write no unit.

Some molecules with known phytotoxicity rating SORHA results, for comparison:
COc1c(Cl)cc(F)c(-n2c(=O)cc(C(F)(F)F)n(N)c2=O)c1NC(=O)c1ccc2ccccc2c1 [2-77]: 0
Cn1c(C(F)(F)F)cc(=O)n(-c2c(F)cc(Cl)c(O)c2NC(=O)c2ccc3ccccc3c2)c1=O [Compound 2-194]: 10
COc1c(Cl)cc(F)c(-n2c(=O)cc(C(F)(F)F)n(C)c2=O)c1NC(N)=O [Compound 3-26]: 0

Query string: Which phytotoxicity rating SORHA is reported for this molecule? COc1c(Cl)cc(F)c(-n2c(=O)cc(C(F)(F)F)n(C)c2=O)c1NC(=O)C1CC1 [2-206]
Result string: 0

Query string: Which phytotoxicity rating SORHA is reported for this molecule? COc1c(Cl)cc(F)c(-n2c(=O)cc(C(F)(F)F)n(C)c2=O)c1NC(=O)OCc1ccccc1[N+](=O)[O-] [4-34]
Result string: 30

Query string: Which phytotoxicity rating SORHA is reported for this molecule? Cc1c(Cl)cc(F)c(-n2c(=O)cc(C(F)(F)F)n(C)c2=O)c1NC(=O)OCCc1ccccc1 [4-57]
Result string: 50

Query string: Which phytotoxicity rating SORHA is reported for this molecule? COc1c(Cl)cc(F)c(-n2c(=O)cc(C(F)(F)F)n(C)c2=O)c1NC(=O)c1cc(F)cc(F)c1 [2-50]
Result string: 40

Query string: Which phytotoxicity rating SORHA is reported for this molecule? COc1c(Cl)cc(F)c(-n2c(=O)cc(C(F)(F)F)n(C)c2=O)c1NC(=O)OCc1ccc2ccccc2c1 [4-28]
Result string: 10
